Biological target: T1, human LAG-3 ECD/Fc fusion protein (human)
T1 construct: also called HuLAG-3 ECD/Fc
T1 sequence (chain, as listed by the source limits assumed): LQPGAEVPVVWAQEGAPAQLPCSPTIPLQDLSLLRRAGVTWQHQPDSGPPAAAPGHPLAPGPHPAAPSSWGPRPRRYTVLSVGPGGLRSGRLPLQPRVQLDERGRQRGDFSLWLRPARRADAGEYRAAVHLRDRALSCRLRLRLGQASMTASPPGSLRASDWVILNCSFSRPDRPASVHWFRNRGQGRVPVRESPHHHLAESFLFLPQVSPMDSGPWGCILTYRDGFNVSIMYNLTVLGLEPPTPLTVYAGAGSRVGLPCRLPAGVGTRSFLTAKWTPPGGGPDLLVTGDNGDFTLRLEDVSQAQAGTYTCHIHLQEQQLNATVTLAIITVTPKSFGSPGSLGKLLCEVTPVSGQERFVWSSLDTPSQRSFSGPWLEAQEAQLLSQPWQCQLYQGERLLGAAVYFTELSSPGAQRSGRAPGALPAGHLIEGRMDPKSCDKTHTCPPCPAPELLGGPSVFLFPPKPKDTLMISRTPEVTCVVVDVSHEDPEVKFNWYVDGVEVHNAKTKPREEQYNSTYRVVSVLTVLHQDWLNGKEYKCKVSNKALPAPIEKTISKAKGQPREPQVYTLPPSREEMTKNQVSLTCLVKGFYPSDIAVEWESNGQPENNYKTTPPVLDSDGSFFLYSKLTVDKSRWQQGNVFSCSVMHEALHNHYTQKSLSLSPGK
Experiment: FACS RBA, huLAG-3 ECD/Fc on Raji; competitor MHC Class II
Experimental: Supernatants displaying LAG-3 specific activity were tested for the ability to block LAG-3 receptor binding to MHC Class II. Raji human B cell lymphoblasts express high levels of MCH Class II and were used as binding targets for LAG-3 ECD/Fc proteins described above. […] After washing twice with PBS, the cells were incubated with anti-human IgG Alexa Fluor® 488 secondary antibody at 4° C. for 1 hour, washed twice with PBS, then fluorescence was measured on a flow cytometer. […]
metric: IC50 (nM)
Answer format: numeric, nM implied, no suffix.

## Task Item mAb744 (antibody, V domains shown, murine hybridoma anti-LAG-3 mAb; also called rnAb744) VH: QVQLQQSGAELVRPGTSVTLSCKASGYTFTDYEMHWMKQTPVHGLEWIGAIDPATGGTAYNQKFKGKAILTADKSSSTAYMDFRSLTSEDSAVYYCIRWGTTVFPYWGQGTLVTVS VL: DVVLTQTPLSLPVNIGDQASISCKSTKSLLNSDGFTYLDWYLQKPGQSPQLLIYLVSNRFSGVPDRFSGSGSGTDFTLKISRVEAEDLGVYYCFQSNYLPWTFGGGTKLEIK has what recorded IC50?
## Result 10.8
